We begin with a simple list: items and their reported MFI.
target: T1, human TMEM106B (human, UniProt Q9NUM4 2-274); experiment: FACS A549, 10 ug/ml
T1 construct: Full-length, on transiently transfected HEK293 cells, or natively expressed on HeLa, U251 and A549 cells; also called huTMEM106B; huTMEM

[[record]]
binder = "anti-TMEM106B antibody TM-28 (antibody, V domains shown) VH: EVQLQQSGPVLVKPGPSVKISCMASVFTFNDYYIHWVKQSHGKSLEWIGLVYPYNGGTNYNQNFKGKATLTVDTSSRTAYMELNSLTSEDSAVYYCARSYFSNPIGYWGQGTLVTVSE VL: DIVMTQSPSSLSVSVGEKVTVSCKSSQSLLNSGNQKNYLAWYQQKPGQPPKLLIYGASTRESGVPDRFTGSGSGTDFTLTISSVQAEDLAVYYCQNDHSYPLTFGAGTKLELK"
result = 4350

[[record]]
binder = "anti-TMEM106B antibody TM-27 (antibody, V domains shown) VH: QVQLQQSGAELVRPGTSVKVSCKASGYALTNYLIEWVKQRPGQGLEWIGVINPGSGSTKYNEKFKGKATLTADKSSSTAYMQLSSLTSEDSAVYFCARIIYDHDWYFDVWGTGTTVTVSS VL: QIVLTQSPAIMSASPGEKVTISCSASSSISYMYWYQQKPGSSPKPWIYRTSTLASGVPARFSGSGSGTSYSLTISSMEAEDAATYYCQQYHSYPRTFGGGTKLEIK"
result = 622


As a next step, examine the binder that follows.
Input: Look at this binder and give its reported MFI. anti-TMEM106B antibody TM-30 (antibody, V domains shown, mouse IgG from hybridoma) VH: QVQLQQSGPELVKPGASVKLSCKASDNTFTNYDVNWVRQRPGQGLEWIGWIYPRDGTTIYNEKFKGRATLTVDTSSSTAYMELHSLTSEDSAVFFCARTLPQAMDYWGQGTSVTVSS VL: DVLMTQSPLSLPVSLGDQVSISCRSSQTIVHRNGNTYLEWYLQKPGQSPKLLIYKVSNRFSGVPDRFSGSGSGTDFTLKISRVEAEDLGVYYCFQGSHLPWTFGGGTKLEIK
Output: 4040
